Assay: Prodrug bioconversion in intestinal S9 cell fractions
Type: in vitro ADME
Conditions: Mouse; 0.01 mg/mL S9 protein; Table F
Marks after values point to notes of the source that are not given here.
quantityKind: Clint (prodrug disappearance)

Example cases with answers are listed next.
{"columns": ["smilesInput", "Clint (prodrug disappearance)"],
 "data": [
  ["CN(C[C@H](Cc1ccccc1)OC(=O)CN)C(=O)c1cncc(C#Cc2cnn(C(F)F)c2)c1", "11160 μL/min/mg intestinal S9 protein"],
  ["CN(C[C@H](Cc1ccccc1)OC(=O)CN)C(=O)c1cncc(C#Cc2cnn(C)n2)c1", "6821.9 μL/min/mg intestinal S9 protein"],
  ["CN(C[C@H](Cc1ccccc1)OP(=O)(O)O)C(=O)c1cncc(C#Cc2cnn(C)n2)c1", "<137** μL/min/mg intestinal S9 protein"]
]}

Could you now consider this next molecule?
query: Identify the reported Clint (prodrug disappearance) for the following entry. "CN(C[C@H](Cc1ccccc1)OP(=O)(O)O)C(=O)c1cncc(C#Cc2cnn(C(F)F)c2)c1"
result: 116.8 μL/min/mg intestinal S9 protein

* * *

Experiment: Prodrug bioconversion in intestinal S9 cell fractions
Type: in vitro ADME
Settings: Monkey; 0.25 mg/mL; Experiment 2
# Lookup of reported Clint (prodrug disappearance) keyed by entry

{"columns": ["smilesInput", "quantityKind", "reportedResult"],
 "data": [
  ["CN(C[C@H](Cc1ccccc1)OP(=O)(O)O)C(=O)c1cncc(C#Cc2cnn(C(F)F)c2)c1", "Clint (prodrug disappearance)", "60.3 μL/min/mg intestinal S9 protein"],
  ["CN(C[C@H](Cc1ccccc1)OC(=O)CN)C(=O)c1cncc(C#Cc2cnn(C)n2)c1", "Clint (prodrug disappearance)", "49.0 μL/min/mg intestinal S9 protein"],
  ["CN(C[C@H](Cc1ccccc1)OC(=O)CN)C(=O)c1cncc(C#Cc2cnn(C(F)F)c2)c1", "Clint (prodrug disappearance)", "91.3 μL/min/mg intestinal S9 protein"]
]}

Next up:
query: Give the reported value of Clint (prodrug disappearance) for this record: "CN(C[C@H](Cc1ccccc1)OP(=O)(O)O)C(=O)c1cncc(C#Cc2cnn(C)n2)c1"
result: 47.7 μL/min/mg intestinal S9 protein

* * *

Assay: Prodrug bioconversion in intestinal S9 cell fractions
Format: in vitro ADME
Details: Dog; 0.25 mg/mL; Experiment 2
Catalogue of molecules with associated Clint (prodrug disappearance)

Use the examples below as a reference point.
{"columns": ["smilesInput", "reportedResult"],
 "data": [
  ["CN(C[C@H](Cc1ccccc1)OC(=O)CN)C(=O)c1cncc(C#Cc2cnn(C(F)F)c2)c1", "16.1 μL/min/mg intestinal S9 protein"],
  ["CN(C[C@H](Cc1ccccc1)OP(=O)(O)O)C(=O)c1cncc(C#Cc2cnn(C(F)F)c2)c1", "387 μL/min/mg intestinal S9 protein"],
  ["CN(C[C@H](Cc1ccccc1)OC(=O)CN)C(=O)c1cncc(C#Cc2cnn(C)n2)c1", "14.4 μL/min/mg intestinal S9 protein"]
]}

# evaluate next
query: Tell me Clint (prodrug disappearance) reported for "CN(C[C@H](Cc1ccccc1)OP(=O)(O)O)C(=O)c1cncc(C#Cc2cnn(C)n2)c1"
result: 369 μL/min/mg intestinal S9 protein

* * *

Experiment: Prodrug bioconversion in intestinal S9 cell fractions
Format: in vitro ADME
Conditions: Human; 0.25 mg/mL; Experiment 3
Measured Clint (prodrug disappearance), listed per entry.

query: For the molecule CN(C[C@H](Cc1ccccc1)OC(=O)CN)C(=O)c1cncc(C#Cc2cnn(C(F)F)c2)c1 [Example 21] , report Clint (prodrug disappearance).
result: 355 μL/min/mg intestinal S9 protein

query: Give a short answer stating reported Clint (prodrug disappearance) for CN(C[C@H](Cc1ccccc1)OP(=O)(O)O)C(=O)c1cncc(C#Cc2cnn(C(F)F)c2)c1 [Example 19] .
result: 235 μL/min/mg intestinal S9 protein

query: Read off the recorded Clint (prodrug disappearance) for CN(C[C@H](Cc1ccccc1)OP(=O)(O)O)C(=O)c1cncc(C#Cc2cnn(C)n2)c1 [Example 23]
result: 203 μL/min/mg intestinal S9 protein

query: Determine its reported Clint (prodrug disappearance): CN(C[C@H](Cc1ccccc1)OC(=O)CN)C(=O)c1cncc(C#Cc2cnn(C)n2)c1 [Example 25]
result: 293 μL/min/mg intestinal S9 protein
